System: IGROV1 ovarian
Assay: NCI tumour cell line growth inhibition, 48 h; in the data active = GI50 below about 0.43 µM; inactive = the rest
Permitted responses: YES (active), NO (inactive)

Qu. Recorded test call requested for O=[N+]([O-])c1ccc2c(N=Nc3c(O)ccc4ccccc34)c(O)cc(S(=O)(=O)O)c2c1
Ans. NO

---

Test system: UACC-62 melanoma
Assay: NCI tumour cell line growth inhibition, 48 h
Below is a list of entries, each paired with its recorded TGI value.

- compound: "CC1OC(O)C(O)C(O)C1O (centres undefined)"
  TGI: "> 100 µM"
- compound: "O=C1OC(CN2CCN(c3ccccc3)CC2)CN1C(=S)Nc1ccccc1 (centres undefined)"
  TGI: "> 100 µM"
- compound: "COC(=O)C1=C(C)NC(C)=C([N+](=O)[O-])C1c1cccc(NO)c1 (centres undefined)"
  TGI: "> 31.6 µM"
- compound: "CN1CCN(c2ccc3[nH]c(C4=C(O)c5nc(CO)n(C)c5C(=O)C4=O)nc3n2)CC1"
  TGI: "> 100 µM"

Qu. Which measured TGI belongs to CC[C@H](C)[C@H](NC(=O)C12C3C4C1C1C2C3C41NC(C)=O)C(=O)N(C)[C@H](C[C@@H](OC(C)=O)c1nc(C(=O)N[C@@H](Cc2ccccc2)C[C@H](C)C(=O)OC)cs1)C(C)C (some centres undefined) , tested on UACC-62 melanoma?
Ans. > 14.3 µM

Qu. Find TGI (UACC-62 melanoma) for the entry CCOC(=O)C(C)(C)Oc1ccc2c(-c3ccc(Cl)cc3)cc(=O)oc2c1
Ans. > 100 µM

Qu. Please tell me: TGI of COc1ccccc1-n1c(SCc2cc(OC)c(OC)c(OC)c2)nc2ccc(Cl)cc2c1=O , system UACC-62 melanoma?
Ans. > 100 µM

Qu. Can you look up TGI on UACC-62 melanoma for COc1ccc2c(c1)OC13Oc4cc(OC)ccc4C=C1CCCC3=C2 ?
Ans. > 100 µM

Qu. Give the reported TGI for Cc1n[nH]c(=O)n1N=C(c1ccccc1)c1ccccc1 (system: UACC-62 melanoma).
Ans. > 100 µM
